FYI, the data here is from the supplement of paper PMC12350171.

Test system: Vibrio cholerae
Test: growth AUC normalised to DMSO control (fraction of control); higher = less growth inhibition, active = hit call of the paper
Details: 20 µM
Counter-ions that a name gives are not always drawn.

molecule	system	growth AUC normalised to DMSO control
CC(=O)O[C@H]1CC[C@@]2(C)C(=CC[C@@H]3[C@@H]2CC[C@]2(C)C(=O)CC[C@@H]32)C1 [Dehydroisoandosterone 3-acetate]	Vibrio cholerae	0.988
COc1ccc(CCN2CCC(Nc3nc4ccccc4n3Cc3ccc(F)cc3)CC2)cc1	Vibrio cholerae	0.934
C[C@]12CC[C@H](O)C[C@H]1CC[C@@H]1[C@@H]2C[C@@H](O)[C@]2(C)[C@@H](C3=CC(=O)OC3)CC[C@]12O	Vibrio cholerae	1.03
CNC(=O)Oc1ccc2c(c1)[C@]1(C)CCN(C)[C@@H]1N2C [Eserine hemisulfate salt]	Vibrio cholerae	1.06
CC(=O)O[C@H]1C[C@@H]2CC[C@@H]3[C@H](CC[C@@]4(C)[C@H]3C[C@H]([N+]3(C)CCCCC3)[C@@H]4OC(C)=O)[C@@]2(C)C[C@@H]1[N+]1(C)CCCCC1 [Pancuronium bromide]	Vibrio cholerae	1.04
c1ccc2c(c1)OCC(C1=NCCN1)O2 (configuration not stated) [Idazoxan hydrochloride]	Vibrio cholerae	1.02
CC[C@@H](CO)NC(=O)[C@@H]1C=C2c3cccc4[nH]cc(c34)C[C@H]2N(C)C1 [Methylergometrine maleate]	Vibrio cholerae	1.01

###

Tested on: Haemophilus parainfluenzae
Assay: growth AUC normalised to DMSO control (fraction of control); higher = less growth inhibition, active = hit call of the paper
Details: 20 µM
Structures can show the parent of a compound that is named as a salt.
Labels: active, inactive

molecule	assigned.class
C=C[C@H]1CN2CC[C@H]1C[C@@H]2[C@@H](O)c1ccnc2ccc(OC)cc12 [Quinidine hydrochloride monohydrate]	inactive
CCn1cc(C(=O)O)c(=O)c2cc(F)c(N3CCNCC3)nc21 [Enoxacin]	active
COc1c(N2CCNC(C)C2)c(F)cc2c(=O)c(C(=O)O)cn(C3CC3)c12 (configuration not stated) [Gatifloxacin]	active
CCN(CC)CCCC(C)Nc1c2ccc(Cl)cc2nc2ccc(OC)cc12 (configuration not stated) [Quinacrine dihydrochloride hydrate]	inactive
CN1[C@@H]2CC[C@H]1C[C@@H](OC(=O)C(CO)c1ccccc1)C2 (some centres not stated) [Atropine sulfate monohydrate]	inactive
O=C(O)CN(CCN(CC(=O)O)CC(=O)O)CCN(CC(=O)O)CC(=O)O [Pentetic acid]	inactive
C#C[C@]1(O)CC[C@H]2[C@@H]3CCC4=C(CCC(=O)C4)[C@H]3CC[C@@]21C [Norethynodrel]	inactive
CCOC(=O)[N-]c1c[n+](N2CCOCC2)no1 [Molsidomine]	inactive
COc1ccc(C(Cl)=C(c2ccc(OC)cc2)c2ccc(OC)cc2)cc1 [Chlorotrianisene]	inactive
COc1ccc(-c2cc(=O)c3c(O)cc(O[C@@H]4O[C@H](CO[C@@H]5O[C@@H](C)[C@H](O)[C@@H](O)[C@H]5O)[C@@H](O)[C@H](O)[C@H]4O)cc3o2)cc1O [Diosmin]	inactive
CC(C)(C)NC[C@H](O)COc1ccccc1C1CCCC1 [Penbutolol sulfate]	inactive
COC1=C(OC)C(=O)C(CCCCCCCCCCO)=C(C)C1=O [Idebenone]	inactive
O=C(Nc1cccc2c(=O)cc(-c3nnn[nH]3)oc12)c1ccc(OCCCCc2ccccc2)cc1 [Pranlukast]	inactive
CN1CCC(=C2c3ccccc3CCc3sccc32)CC1 [Pizotifen malate]	inactive
C#CCN(C)Cc1ccccc1 [Pargyline hydrochloride]	inactive
O=C(CCCN1CCC(n2c(=O)[nH]c3ccccc32)CC1)c1ccc(F)cc1 [Benperidol]	inactive
NS(=O)(=O)c1cc(C(=O)O)c(NCc2ccco2)cc1Cl [Furosemide]	inactive

###

Listing of recorded growth AUC normalised to DMSO control by entry.
Test system: Haemophilus parainfluenzae
Assay: growth AUC normalised to DMSO control (fraction of control); higher = less growth inhibition, active = hit call of the paper
Details: 20 µM
Structures can show the parent of a compound that is named as a salt.

compound	system	growth AUC normalised to DMSO control
COc1ccccc1OCCNCC(O)COc1cccc2[nH]c3ccccc3c12 (stereo not drawn)	Haemophilus parainfluenzae	0.963 (inactive)
CC[C@@H]1C(=O)OC[C@@H]1Cc1cncn1C [Pilocarpine nitrate]	Haemophilus parainfluenzae	0.981 (inactive)
C=CC1=C(C(=O)O)N2C(=O)[C@@H](NC(=O)/C(=N\OCC(=O)O)c3csc(N)n3)[C@H]2SC1	Haemophilus parainfluenzae	0.0416 (active)
COc1ccc([C@@H]2CC(=O)c3c(O)cc(O[C@@H]4O[C@H](CO[C@@H]5O[C@@H](C)[C@H](O)[C@@H](O)[C@H]5O)[C@@H](O)[C@H](O)[C@H]4O)cc3O2)cc1O	Haemophilus parainfluenzae	1.07 (inactive)
N[C@@H](Cc1ccc(O)c(O)c1)C(=O)O	Haemophilus parainfluenzae	1.02 (inactive)
COC(=O)Nc1nc2cc(C(=O)c3ccc(F)cc3)ccc2[nH]1	Haemophilus parainfluenzae	1.02 (inactive)
CC(N)C(O)c1ccccc1 (stereo not drawn) [Phenylpropanolamine hydrochloride]	Haemophilus parainfluenzae	1.07 (inactive)
Cc1cccc(N(C)C(=S)Oc2ccc3ccccc3c2)c1 [Tolnaftate]	Haemophilus parainfluenzae	1 (inactive)

###

System: P. vulgatus WT;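 further: active when median AUC fell below 0.1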
Experiment: growth AUC normalised to DMSO control (median) (fraction of control); higher = less growth inhibition, active = hit call of the paper
Details: 20 µM
# growth AUC normalised to DMSO control per record follows
measured.quantity: growth AUC normalised to DMSO control

In [3]: df
Out[3]:
                                   compound  measured_value
0  C[C@]12Cc3c[nH]nc3C[C@@H]1CC[C@@H]1[C@@H]2CC[C@@]2(C)[C@H]1CC[C@]2(C)O [Stanozolol]           0.966
1  C[C@]12CC[C@H](O)C[C@@H]1CC[C@@H]1[C@@H]2CC[C@]2(C)C(=O)CC[C@@H]12 [Epiandrosterone]            1.03
2  CN(C)C(=O)Oc1ccc[n+](C)c1 [Pyridostigmine iodide]            1.03
3  CC(=O)OCC1=C(C(=O)O)N2C(=O)[C@@H](N)[C@H]2SC1 [Cephalosporanic acid, 7-amino]          0.0158

###

Tested on: Haemophilus parainfluenzae
Assay: growth AUC normalised to DMSO control (fraction of control); higher = less growth inhibition, active = hit call of the paper
Settings: 20 µM
Counter-ions that a name gives are not always drawn.
Label rule met when growth AUC normalised to DMSO control is at or above 1; otherwise label rule not met.

>>> df
                                   molecule  assigned_class
0  CC(C)(C#N)c1cc(Cn2cncn2)cc(C(C)(C)C#N)c1        rule met
1  COc1cc([C@@H]2c3cc4c(cc3[C@H](O)[C@H]3COC(=O)[C@H]23)OCO4)cc(OC)c1OC        rule met
2  c1ccc(CC2=NCCN2)cc1 [Tolazoline hydrochloride]        rule met
3  CN(C)[C@@H]1C(=O)C(C(N)=O)=C(O)[C@@]2(O)C(=O)C3=C(O)c4c(O)cccc4[C@@](C)(O)[C@H]3C[C@@H]12 [Tetracycline hydrochloride]    rule not met
4                 Nc1cc(-c2ccncc2)c[nH]c1=O        rule met

###

System: Haemophilus parainfluenzae
Experiment: growth AUC normalised to DMSO control (fraction of control); higher = less growth inhibition, active = hit call of the paper
Details: 20 µM
Counter-ions that a name gives are not always drawn.
measured.quantity: growth AUC normalised to DMSO control

>>> print(df.to_string())
                                    compound                      system                      measured_quantity    measured_value
 0  CCCCOc1ccc(OCCCN2CCOCC2)cc1 [Pramoxine hydrochloride]  Haemophilus parainfluenzae  growth AUC normalised to DMSO control  0.936 (inactive)
 1  N=C(NCCCCCCNC(=N)NC(=N)Nc1ccc(Cl)cc1)NC(=N)Nc1ccc(Cl)cc1  Haemophilus parainfluenzae  growth AUC normalised to DMSO control    0.139 (active)
 2  CN(C)CCC[C@@]1(c2ccc(F)cc2)OCc2cc(C#N)ccc21 [Escitalopram oxalate]  Haemophilus parainfluenzae  growth AUC normalised to DMSO control   1.03 (inactive)
 3  CC(C)(C)NCC(O)c1cc(Cl)c(N)c(Cl)c1 (configuration not stated) [Clenbuterol hydrochloride]  Haemophilus parainfluenzae  growth AUC normalised to DMSO control  0.984 (inactive)
 4  NC1CCN(c2nc3c(cc2F)c(=O)c(C(=O)O)cn3-c2ccc(F)cc2F)C1 (configuration not stated) [Tosufloxacin hydrochloride]  Haemophilus parainfluenzae  growth AUC normalised to DMSO control   0.0424 (active)
 5  CN(C)CCOC(c1ccc(Cl)cc1)c1ccccn1 (configuration not stated) [Carbinoxamine maleate salt]  Haemophilus parainfluenzae  growth AUC normalised to DMSO control   1.08 (inactive)
 6  O=[N+]([O-])O[C@H]1CO[C@H]2[C@@H]1OC[C@H]2O[N+](=O)[O-] [Isosorbide dinitrate]  Haemophilus parainfluenzae  growth AUC normalised to DMSO control   1.07 (inactive)
 7  CC(C)(C)NC[C@H](O)COc1cccc2c1CCCC2=O [(-) Levobunolol hydrochloride]  Haemophilus parainfluenzae  growth AUC normalised to DMSO control  0.989 (inactive)
 8              CC(C)(S)C(N)C(=O)O (racemic)  Haemophilus parainfluenzae  growth AUC normalised to DMSO control  0.981 (inactive)
 9  CC12CC3CC(C)(C1)CC(N)(C3)C2 [Memantine hydrochloride]  Haemophilus parainfluenzae  growth AUC normalised to DMSO control  0.986 (inactive)
10                CN(C)/N=N/c1[nH]cnc1C(N)=O  Haemophilus parainfluenzae  growth AUC normalised to DMSO control  0.999 (inactive)
11  CC(=O)[C@@]1(O)CC[C@H]2[C@@H]3C[C@H](C)C4=CC(=O)C=C[C@]4(C)[C@@]3(F)[C@@H](O)C[C@@]21C  Haemophilus parainfluenzae  growth AUC normalised to DMSO control      1 (inactive)
12  NS(=O)(=O)c1cc(Cl)c(Cl)c(S(N)(=O)=O)c1 [Dichlorphenamide]  Haemophilus parainfluenzae  growth AUC normalised to DMSO control   1.03 (inactive)
13  O=C(c1ccc(OCCN2CCCCC2)cc1)c1c(-c2ccc(O)cc2)sc2cc(O)ccc12 [Raloxifene hydrochloride]  Haemophilus parainfluenzae  growth AUC normalised to DMSO control  0.974 (inactive)
14    CCn1cc(C(=O)O)c(=O)c2cnc(N3CCNCC3)nc21  Haemophilus parainfluenzae  growth AUC normalised to DMSO control  0.915 (inactive)
15  Cc1ccccc1C(OCCN(C)C)c1ccccc1 (configuration not stated) [Orphenadrine hydrochloride]  Haemophilus parainfluenzae  growth AUC normalised to DMSO control  0.954 (inactive)
16  CC(C)(C)NC(=O)[C@H]1CC[C@H]2[C@@H]3CC[C@H]4NC(=O)C=C[C@]4(C)[C@H]3CC[C@]12C [Finasteride]  Haemophilus parainfluenzae  growth AUC normalised to DMSO control   1.06 (inactive)
